Experimental Details: Displacement of [3H]DTG from sigma 2 receptor in guinea pig brain membranes after 120 mins
Assay type: cell membranes, Cavia porcellus, Membrane
Returns: string. Value is fulfilled if measured Ki is below 30 nM, and not fulfilled if it is greater than or equal to it.

- Compound: "O=C(CCCc1ccccc1)OC(CCCN1CCC(O)(c2ccc(Cl)cc2)CC1)c1ccc(F)cc1 (racemic)"
  Classification: "fulfilled"

QUERY: Quick check: does COC(=O)[C@@]1(c2ccccc2)C[C@H]1CN1C2C=C(c3ccc(Cl)cc3)CC1CC2 (mixture of isomers) have Ki under 30 nM?
RESULT: not fulfilled

QUERY: For COC(=O)[C@]1(c2ccccc2)C[C@@H]1CN1C2C=C(c3ccc(Cl)cc3)CC1CC2 (mixture of isomers) , is the recorded Ki below the cut-off of 30 nM?
RESULT: not fulfilled

QUERY: Below 30 nM on Ki? Entry COC(=O)[C@]1(c2ccccc2)C[C@@H]1CN1CCC(O)(c2ccccc2)CC1
RESULT: fulfilled

QUERY: Given the entry Cc1ccccc1NC(=N)Nc1ccccc1C , would its reported Ki be below 30 nM?
RESULT: fulfilled

QUERY: Please state whether Ki is below 30 nM for COC(=O)[C@@]1(c2ccccc2)C[C@H]1CN1CCC(O)(c2ccccc2)CC1
RESULT: not fulfilled

QUERY: Take the compound COC(=O)[C@]1(c2ccccc2)C[C@@H]1CN1[C@@H]2CC[C@H]1C[C@@](O)(c1ccc(Cl)cc1)C2 and say whether its Ki is less than 30 nM.
RESULT: not fulfilled

QUERY: Find out if reported Ki for COC(=O)[C@@]1(c2ccccc2)C[C@H]1CN1[C@@H]2CC[C@H]1C[C@@](O)(c1ccc(Cl)cc1)C2 is less than 30 nM
RESULT: fulfilled

QUERY: Say whether its Ki is strictly beneath 30 nM. Entry: COC(=O)[C@@]1(c2ccccc2)C[C@H]1CN1CCC(O)(c2ccc(Cl)cc2)CC1
RESULT: fulfilled

QUERY: Strictly below 30 nM: is that where Ki of O=C(CCCN1CCC(O)(c2ccc(Cl)cc2)CC1)c1ccc(F)cc1 sits?
RESULT: fulfilled

QUERY: Below 30 nM on Ki? Entry COC(=O)[C@]1(c2ccccc2)C[C@@H]1CN1CCC(O)(c2ccc(Cl)cc2)CC1
RESULT: fulfilled
